The following molecules are shown together with reported pIC50 values.
- Test system: MCF7 cells (HTB-22)
- method: Tumor cell growth inhibition, CCK-8 assay
- Format: cell-based
- study-conditions: Homo sapiens, 48 h, CCK-8, growth inhibition
The quantity pIC50 is defined as the negative base-10 logarithm of the molar concentration.

For orientation, consider the following solved cases.
# molecule, number
records = [
    ("C[C@H]1C(O[C@@H]2CC[C@@]3(C)C(C2)C[C@H](O)C2C3CC[C@@]3(C)C2CC[C@@H]3[C@H](C)CCC(=O)O)OC2OC3(C)CCC4[C@H](C)CCC1[C@@]24OO3 (some centres unmarked)", 5.47),
    ("CC(C)[C@@H](C)/C=C/[C@@H](C)[C@H]1CCC2C3=CC=C4CC(OC5OC6OC7(C)CCC8[C@H](C)CCC([C@H]5C)[C@@]68OO7)CC[C@]4(C)C3CC[C@@]21C (some centres unmarked)", 4.35),
    ("C[C@H]1C(O[C@@H]2CC[C@@]3(C)C(C2)C[C@@H](O)C2C3CC[C@@]3(C)C2CC[C@@H]3[C@H](C)CCC(=O)O)OC2O[C@@]3(C)CCC4[C@H](C)CCC1[C@@]24OO3 (some centres unmarked)", 4.46),
    ("C[C@H]1[C@@H](O)O[C@@H]2O[C@@]3(C)CC[C@H]4[C@H](C)CC[C@@H]1[C@@]24OO3 [Dihydroartemisinin]", 4.00),
]

Turning now to a further molecule:
Ask | Form: Entry = CC(=O)O[C@H]1C(=O)[C@@]2(C)[C@H]([C@H](OC(=O)c3ccccc3)[C@]3(O)C[C@H](OC(=O)[C@H](O)[C@@H](NC(=O)c4ccccc4)c4ccccc4)C(C)=C1C3(C)C)[C@]1(OC(C)=O)CO[C@@H]1C[C@@H]2O [Taxol, paclitaxel, reference compound] | System = MCF7 cells (HTB-22) | pIC50 = ____
Reply | 8.00

* * *

// reported pIC50 for each item listed
- Test system: RCC-4
- method: Inhibitory effects on various tumor cells
- Format: cell-based
- study-conditions: Homo sapiens, RCC4; RCC-4 cells
pIC50 here is simply -log10 of the concentration when that concentration is written in mol/L.

# compound, pIC50
rows = [
    ("CC(=O)O[C@H]1C(=O)[C@@]2(C)[C@H]([C@H](OC(=O)c3ccccc3)[C@]3(O)C[C@H](OC(=O)[C@H](O)[C@@H](NC(=O)c4ccccc4)c4ccccc4)C(C)=C1C3(C)C)[C@]1(OC(C)=O)CO[C@@H]1C[C@@H]2O [Taxol, paclitaxel, reference compound]", 5.00),
]

// switching to the query compound
Ask | Record request: pIC50 value, item C[C@H]1C(O[C@@H]2CC[C@@]3(C)C(C2)C[C@H](O)C2C3CC[C@@]3(C)C2CC[C@@H]3[C@H](C)CCC(=O)O)OC2OC3(C)CCC4[C@H](C)CCC1[C@@]24OO3 (some centres unmarked) [JZ-2]
Reply | 5.60

* * *

- Tested on: Kasumi
- method: Inhibitory effects on various tumor cells
- Assay type: cell-based
measured-parameter: pIC50
For clarity, pIC50 is expressed as the negative log10 of concentration in mol/L.

# molecule, measured-parameter, number
data = [
    ("C[C@H]1C(O[C@@H]2CC[C@@]3(C)C(C2)C[C@H](O)C2C3CC[C@@]3(C)C2CC[C@@H]3[C@H](C)CCC(=O)O)OC2OC3(C)CCC4[C@H](C)CCC1[C@@]24OO3 (some centres unmarked)", "pIC50", 6.80),
]

Ask | Record request: pIC50 value, item CC(=O)O[C@H]1C(=O)[C@@]2(C)[C@H]([C@H](OC(=O)c3ccccc3)[C@]3(O)C[C@H](OC(=O)[C@H](O)[C@@H](NC(=O)c4ccccc4)c4ccccc4)C(C)=C1C3(C)C)[C@]1(OC(C)=O)CO[C@@H]1C[C@@H]2O [Taxol, paclitaxel, reference compound]
Reply | 8.00

* * *

- System: HEPG-2
- method: Inhibitory effects on various tumor cells
- Type: cell-based
- study-conditions: Homo sapiens, HepG2; HEPG-2 cells
A collection of molecules and their measured pIC50
The value called pIC50 is obtained by taking minus log10 of the concentration in mol/L.

# molecule, number
rows = [
    ("CC(=O)O[C@H]1C(=O)[C@@]2(C)[C@H]([C@H](OC(=O)c3ccccc3)[C@]3(O)C[C@H](OC(=O)[C@H](O)[C@@H](NC(=O)c4ccccc4)c4ccccc4)C(C)=C1C3(C)C)[C@]1(OC(C)=O)CO[C@@H]1C[C@@H]2O [Taxol, paclitaxel, reference compound]", 8.00),
]

# evaluate next
Ask | Recorded pIC50 for C[C@H]1C(O[C@@H]2CC[C@@]3(C)C(C2)C[C@H](O)C2C3CC[C@@]3(C)C2CC[C@@H]3[C@H](C)CCC(=O)O)OC2OC3(C)CCC4[C@H](C)CCC1[C@@]24OO3 (some centres unmarked) [JZ-2] , please?
Reply | 6.30
